Source of measurements: ChEMBL document CHEMBL1821637

Test system: MCF7
Assay: Cytotoxicity against human MCF7 cells assessed as cell viability after 48 hrs by alamar blue assay
Assay type: functional, cell-based
Settings: MCF7, 48 h
I'd appreciate it if you could supply IC50 values for the items below.

# input Record request: IC50 value, item CC(C)CCC[C@@H](C)[C@H]1CC[C@H]2[C@@H]3[C@@H](O)[C@@H](O)[C@@]4(O)C[C@@H](O)CC[C@]4(C)[C@H]3CC[C@]12C
# output 13.1 µM

# input Record request: IC50 value, item CC(=O)O[C@@H]1[C@H]2[C@@H]3CC[C@H]([C@H](C)CCCC(C)C)[C@@]3(C)CC[C@@H]2[C@@]2(C)CC[C@H](O)C[C@]2(O)[C@@H]1OC(C)=O
# output 13.2 µM

# input Record request: IC50 value, item CC(=O)O[C@@H]1C[C@H]2[C@@H]3CC[C@H]([C@H](C)CCCC(C)C)[C@@]3(C)CC[C@@H]2[C@@]2(C)CC[C@H](O)C[C@]12O
# output 11 µM

# input Record request: IC50 value, item CC(C)CCC[C@@H](C)[C@H]1CC[C@H]2[C@@H]3C[C@@H](O)[C@@]4(O)[C@@H](O)[C@@H](O)CC[C@]4(C)[C@H]3CC[C@]12C
# output 14.5 µM

====

I'd appreciate it if you could supply pIC50 values for the items below.
Tested on: HepG2
Assay: Cytotoxicity against human HepG2 cells assessed as cell viability after 48 hrs by alamar blue assay
Format: functional, cell-based
Conditions: HepG2, 48 h
The quantity pIC50 is defined as the negative base-10 logarithm of the molar concentration.

# input Reported pIC50 for HepG2, given CC(C)CCC[C@@H](C)[C@H]1CC[C@H]2[C@@H]3C/C(=N\O)[C@@]4(O)C[C@@H](O)CC[C@]4(C)[C@H]3CC[C@]12C ?
# output 4.88

# input Reported pIC50 for HepG2, given CC(=O)O[C@@H]1[C@H]2[C@@H]3CC[C@H]([C@H](C)CCCC(C)C)[C@@]3(C)CC[C@@H]2[C@@]2(C)CC[C@H](O)C[C@]2(O)[C@@H]1OC(C)=O ?
# output 4.93

# input Reported pIC50 for HepG2, given CC(C)CCC[C@@H](C)[C@H]1CC[C@H]2[C@@H]3CC[C@@]4(O)[C@@H](O)[C@@H](O)CC[C@]4(C)[C@H]3CC[C@]12C ?
# output 4.46

====

I'd appreciate it if you could supply IC50 values for the items below.
System: HepG2
Test: Cytotoxicity against human HepG2 cells assessed as cell viability after 48 hrs by alamar blue assay
Format: functional, cell-based
Conditions: HepG2, 48 h
Dear colleague, please return just the value in µM, with no unit written.

# input Record request: IC50 value, item CC(=O)O[C@@H]1C[C@H]2[C@@H]3CC[C@H]([C@H](C)CCCC(C)C)[C@@]3(C)CC[C@@H]2[C@@]2(C)CC[C@H](O)C[C@]12O
# output 11.9

# input Record request: IC50 value, item CC(=O)N[C@@H]1C[C@H]2[C@@H]3CC[C@H]([C@H](C)CCCC(C)C)[C@@]3(C)CC[C@@H]2[C@@]2(C)CC[C@H](O)C[C@]12O
# output 11.6

# input Record request: IC50 value, item CC(C)CCC[C@@H](C)[C@H]1CC[C@H]2[C@@H]3[C@@H](O)[C@@H](O)[C@@]4(O)C[C@@H](O)CC[C@]4(C)[C@H]3CC[C@]12C
# output 13.8

# input Record request: IC50 value, item CC(C)CCC[C@@H](C)[C@H]1CC[C@H]2[C@@H]3C[C@@H](O)[C@@]4(O)[C@@H](O)[C@@H](O)CC[C@]4(C)[C@H]3CC[C@]12C
# output 12.7

# input Record request: IC50 value, item CO[C@@H]1C[C@H]2[C@@H]3CC[C@H]([C@H](C)CCCC(C)C)[C@@]3(C)CC[C@@H]2[C@@]2(C)CC[C@H](O)C[C@]12O
# output 13.3
